- system.under.test: Cytochrome P450 2C9 (Homo sapiens) (UniProt P11712)
- Sequence (P11712 whole entry, looked up): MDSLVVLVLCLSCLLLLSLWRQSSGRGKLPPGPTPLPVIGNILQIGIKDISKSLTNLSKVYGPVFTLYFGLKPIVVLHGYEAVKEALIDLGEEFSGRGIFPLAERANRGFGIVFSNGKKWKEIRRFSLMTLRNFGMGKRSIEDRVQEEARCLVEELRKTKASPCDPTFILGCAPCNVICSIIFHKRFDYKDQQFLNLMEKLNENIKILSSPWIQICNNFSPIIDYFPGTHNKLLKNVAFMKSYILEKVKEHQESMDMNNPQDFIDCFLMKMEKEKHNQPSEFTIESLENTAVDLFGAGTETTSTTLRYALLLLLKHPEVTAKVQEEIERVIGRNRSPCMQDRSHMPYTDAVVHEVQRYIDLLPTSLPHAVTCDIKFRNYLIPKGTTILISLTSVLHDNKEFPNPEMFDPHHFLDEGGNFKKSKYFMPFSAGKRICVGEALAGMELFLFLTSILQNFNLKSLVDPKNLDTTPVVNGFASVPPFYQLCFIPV
- assay.details: Cytochrome P450 Family 2 Subfamily C Member 9 (CYP2C9) small molecule antagonists: luciferase reporter qHTS assay (AID 1671198); further: nearly all actives have a fitted effect of over 50% in size
- experimental.context: P450-Glo CYP2C9 enzyme assay, luciferin luminescence; series mostly up to 115 µM
Inconclusive results are not listed. Activity calls are given as the source filed them. The call rests on the fitted dose curve; in most records, active means well fitted inhibition curve with a large enough effect in the repeat runs; inconclusive means weak or mixed curves; inactive means no such curve, though single readings can be large or run the other way.
In this exercise, the only acceptable responses are active, inactive

Which result was noted for this compound in the test: CC(C)(C)OCC1CO1 (centres undefined)
inactive

Please let me know the test result on file for "O=C(O)c1ccc(S(=O)(=O)O)cc1C(=O)O" .
inactive

Tell me the assay call for C=CCOc1ccccc1OCC(O)CNC(C)C (centres undefined) please.
inactive

Recorded test call requested for CC(CC=O)c1ccccc1 (centres undefined)
active

Name the outcome recorded for "CC/C=C\CCOC(=O)CC" in the assay.
inactive

Please let me know the test result on file for "CCCCCCCCCc1ccc(OCCOCCO)cc1" .
active

Per the assay record, what outcome was assigned to "NCCCN1CCOCC1" ?
inactive

Assay outcome for "C=C(C)C(=O)OCCO" : what was it?
inactive

Hi team, can someone confirm the assay call for "CCCCCCCCCCCCN1CCCCCC1=O" ?
active

Per the assay record, what outcome was assigned to "CCCCCCCN" ?
inactive

Assay outcome for "Nc1ccc(N)c2c1C(=O)c1ccccc1C2=O" : what was it?
active

Write down the call the test reported for this compound. Item: "CCCCc1nc2cccnc2n1Cc1ccc(-c2ccccc2-c2nnn[nH]2)cc1"
active

Per the assay record, what outcome was assigned to "O=C(OCCc1ccccc1)c1ccccc1" ?
active

Please indicate how the test categorized "CC(=O)c1ccc2c(c1)N(CCCN(C)C)c1ccccc1S2" .
inactive

Returns: the outcome recorded for "CCOc1ccc(N)c([N+](=O)[O-])c1" in this assay.
active

Hi team, can someone confirm the assay call for "CCCCCCCC/C=C\CCCCCCCC(=O)OCC" ?
active

Assay outcome for "CCCCCCOC(=O)NC(=N)c1ccc(NCc2nc3cc(C(=O)N(CCC(=O)OCC)c4ccccn4)ccc3n2C)cc1" : what was it?
active

Call for entry "CC(=O)OC[C@H]1O[C@@H](n2ncc(=O)[nH]c2=O)[C@H](OC(C)=O)[C@@H]1OC(C)=O" :
inactive

Tell me the recorded outcome of this test for "COC(C)(C)CCO" .
inactive

So what was the verdict on "OC(C#CCN1CCCC1)(c1ccccc1)c1ccccc1" in this test?
active

Check the results log: what was the call for CN1Cc2cc(C(=O)N3CCC(C4CCNCC4)CC3)ccc2NC(CC(=O)O)C1=O (centres undefined) ?
inactive

Give the logged outcome of this assay for the following compound: CCCCC(CC)COC(=O)CCCCCCCCC(=O)OCC(CC)CCCC (centres undefined)
inactive

Lab log entry: CCCCC(CC)COC(=O)COc1ccc(Cl)cc1Cl (centres undefined) — outcome as called in the assay?
active

I'd appreciate the recorded outcome for CCN(CC)CCOC(=O)C(Cc1cccc2ccccc12)CC1CCCO1 (centres undefined) from this test.
inactive
